assay: Solubility at pH 7.5; type: physicochemical; conditions: buffer
Reported solubility values for the following compounds.

Examples with answers:
CC(C)(C)CCn1c(=O)c(C2=NS(=O)(=O)c3cc(NS(C)(=O)=O)ccc3N2)c(O)c2cccn21 > 100 µM
CC(C)CCn1c(=O)c(C2=NS(=O)(=O)c3ccccc3N2)c(O)c2cccn21 > 200 µM
CN(c1ccc2c(c1)S(=O)(=O)N=C(c1c(O)c3cccn3n(Cc3ccc(F)cc3)c1=O)N2)S(C)(=O)=O > 60 µM
CC(C)CCn1c(=O)c(C2=Nc3ccc(NS(C)(=O)=O)cc3S(=O)(=O)N2)c(O)c2cccn21 > 100 µM
CC(C)CCn1c(=O)c(C2=NS(=O)(=O)c3cc(N(C)S(C)(=O)=O)ccc3N2)c(O)c2cccn21 > 100 µM

Query: I'd like to know its solubility. The compound in question is `CC(C)CCn1c(=O)c(C2=NS(=O)(=O)c3cc(NS(=O)(=O)C4CC4)ccc3N2)c(O)c2cccn21`
Response: > 100 µM

Query: Can you share its solubility? I mean this compound: `CC(C)CCn1nc(-c2cccs2)c(O)c(C2=Nc3ccc(NS(C)(=O)=O)cc3S(=O)(=O)N2)c1=O`
Response: > 100 µM

Query: Item under review: `CS(=O)(=O)Nc1ccc2c(c1)S(=O)(=O)N=C(c1c(O)c3cccn3n(Cc3ccc(F)cc3)c1=O)N2` . Reported solubility?
Response: > 100 µM

---

experiment: Metabolic stability in cynomolgus monkey liver microsomes assessed as remains after 60 mins at 1 uM; assay type: ADME, Macaca fascicularis, Microsome; details: read-out: Stability
quantity.measured: remaining at 1 h, 1 µM (%)

CS(=O)(=O)Nc1ccc2c(c1)S(=O)(=O)N=C(c1c(O)c3cccn3n(Cc3ccc(F)cc3)c1=O)N2 90
CC(C)CCn1c(=O)c(C2=NS(=O)(=O)c3cc(NS(=O)(=O)C4CC4)ccc3N2)c(O)c2cccn21 87
CN(c1ccc2c(c1)S(=O)(=O)N=C(c1c(O)c3cccn3n(Cc3ccc(F)cc3)c1=O)N2)S(C)(=O)=O 90
CC(C)CCn1c(=O)c(C2=Nc3ccc(NS(C)(=O)=O)cc3S(=O)(=O)N2)c(O)c2cccn21 66

---

test: Oral bioavailability in cynomolgus monkey at 1 mg/kg; type: ADME, organism-based, Macaca fascicularis; details: in vivo
quantity.measured: bioavailability (%)

Recorded results for 2 molecules are shown here.
CN(c1ccc2c(c1)S(=O)(=O)N=C(c1c(O)c3cccn3n(Cc3ccc(F)cc3)c1=O)N2)S(C)(=O)=O 6
CC(C)CCn1c(=O)c(C2=NS(=O)(=O)c3cc(NS(=O)(=O)C4CC4)ccc3N2)c(O)c2cccn21 4

1. CC(C)CCn1nc(-c2cccs2)c(O)c(C2=Nc3ccc(NS(C)(=O)=O)cc3S(=O)(=O)N2)c1=O
2. CC(C)CCn1c(=O)c(C2=NS(=O)(=O)c3cc(N(C)S(C)(=O)=O)ccc3N2)c(O)c2cccn21
Query: Choose between 1 and 2 : whose measured bioavailability value is numerically larger? Mark your answer with the label of the selected entry.
Response: 2

---

assay: Oral bioavailability in cynomolgus monkey at 1 mg/kg; format: ADME, organism-based, Macaca fascicularis; conditions: in vivo
quantity.measured: bioavailability (%)

CC(C)CCn1c(=O)c(C2=NS(=O)(=O)c3ccccc3N2)c(O)c2cccn21 63

I. CC(C)(C)CCn1c(=O)c(C2=NS(=O)(=O)c3cc(NS(C)(=O)=O)ccc3N2)c(O)c2cccn21
II. CS(=O)(=O)Nc1ccc2c(c1)S(=O)(=O)N=C(c1c(O)c3cccn3n(Cc3ccc(F)cc3)c1=O)N2
Query: Sort I and II by bioavailability descending and give the first. Please respond with the label that marks your chosen entry.
Response: I
(I: 2%, II: 1%)

Values compiled from ChEMBL document CHEMBL1145561.
